- Tested On: human Y2 receptor (human) (UniProt P49146)
- Sequence (P49146 whole entry): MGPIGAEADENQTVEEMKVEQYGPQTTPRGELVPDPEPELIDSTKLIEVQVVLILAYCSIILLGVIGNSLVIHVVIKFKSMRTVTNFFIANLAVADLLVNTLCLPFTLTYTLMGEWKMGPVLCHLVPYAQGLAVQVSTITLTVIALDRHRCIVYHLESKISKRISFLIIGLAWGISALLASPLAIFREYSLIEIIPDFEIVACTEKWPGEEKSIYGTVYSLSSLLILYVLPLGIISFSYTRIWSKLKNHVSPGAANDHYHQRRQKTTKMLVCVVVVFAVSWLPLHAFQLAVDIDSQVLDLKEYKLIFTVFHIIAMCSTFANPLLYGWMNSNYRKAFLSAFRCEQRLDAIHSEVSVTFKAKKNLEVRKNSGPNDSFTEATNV
- Assay Overview: cell-based or functional assay
Starred links: 1 amine or outer side, 2 acyl side, 3 side chain; linkers in the order of their positions; H or OH if unused. Non-standard residues stand in square brackets, D forms with d. 4Pal = N[C@@H](Cc1ccncc1)C(=O)O; Cha = N[C@@H](CC1CCCCC1)C(=O)O; Suc = O=C(CCC(=O)[*:2])[*:1]; Aib = CC(C)(N)C(=O)O
Endpoint Label: GBA EC50 Ratio ([35S]GTPγS binding) (EC50 compound/EC50 PYY(3-36))
Hey, just send me the number, nothing else.

response.value for Suc-[dP]R[4Pal][Cha][Aib]NK[Aib]TRQR[Cha]-NH2 (SMILES C[C@@H](O)[C@H](NC(=O)C(C)(C)NC(=O)[C@H](CCCCN)NC(=O)[C@H](CC(N)=O)NC(=O)C(C)(C)NC(=O)[C@H](CC1CCCCC1)NC(=O)[C@H](Cc1ccncc1)NC(=O)[C@H](CCCNC(=N)N)NC(=O)[C@H]1CCCN1C(=O)CCC(=O)O)C(=O)N[C@@H](CCCNC(=N)N)C(=O)N[C@@H](CCC(N)=O)C(=O)N[C@@H](CCCNC(=N)N)C(=O)N[C@@H](CC1CCCCC1)C(N)=O) [3-Carboxypropionyl-[D-Pro24, Pya(4)26, Cha27,36, Aib28,31, Lys30]-PYY(24-36)] (field: GBA EC50 Ratio ([35S]GTPγS binding) (EC50 compound/EC50 PYY(3-36))) = 1.2
